- Protocol Description: Pharmacokinetics in monkeys, single IV or oral administration
- Assay type: in vivo, monkey
- Condition Context: blood, 1 mg/kg; monkey, IV, 1 mpk
Reported Metric: C0 (ng/mL)
Hi! Could you send only the number? It should be in ng/mL, unit omitted.

Compound	C0, ng/mL
CS(=O)(=O)Nc1cc(-c2ccc3ncnc(Nc4ccc(F)c(Cl)c4)c3c2)cnc1Cl [Comparative Compound 2, reference compound]	5910

# ---- query compound ----
## Input C0 for C[C@@H](Nc1ncnc2ccc(-c3cnc(Cl)c(NS(C)(=O)=O)c3)cc12)c1ccccc1 [Compound 2R] ?
## Output 4170

====

- Protocol Description: Pharmacokinetics in monkeys, single IV or oral administration
- Type: in vivo, monkey
- Condition Context: blood, 10 mg/kg; monkey, oral, 10 mpk
Reported Metric: Tmax (h)
Field: numeric (h). Do not append units.

Compound	Observed Measurement
CS(=O)(=O)Nc1cc(-c2ccc3ncnc(Nc4ccc(F)c(Cl)c4)c3c2)cnc1Cl [Comparative Compound 2, reference compound]	1

## Input Entry under review: C[C@@H](Nc1ncnc2ccc(-c3cnc(Cl)c(NS(C)(=O)=O)c3)cc12)c1ccccc1 . Reported Tmax?
## Output 2
